- Tested on: Staphylococcus aureus
- method summary: Antimicrobial activity against methicillin-resistant Staphylococcus aureus OIT971 by micro broth dilution or agar based method
- Assay type: functional
# MIC annotations
Could you give me the number in µg/mL? Just the number is fine.

The examples below pair each entry with its known result.
                           structure_string  observed_result
0  Cc1cc(S(C)(=O)=O)nc2c(CCC34CCC(NCc5ccc6c(n5)NC(=O)CO6)(CC3)CO4)c(F)cnc12            0.125
1  COc1ccc2ncc(OC)c(CCC34CCC(NCc5ccc6c(n5)NC(=O)CO6)(CC3)CO4)c2n1            0.063
2  Cc1ccc2ncc(F)c(CCC34CCC(NCc5ccc6c(n5)NC(=O)CO6)(CC3)CO4)c2n1            0.125

Continue with the compound presented below.
## Task Form field: reported MIC of O=C1COc2ccc(CNC34CCC(CCc5c(F)cnc6cc(Cl)cnc56)(CC3)OC4)nc2N1
## Result 8

====

- System: Enterococcus faecium
- method summary: Antimicrobial activity against VanA expressing vancomycin-resistant Enterococcus faecium by micro broth dilution or agar based method
- Assay type: functional
- condition description: Enterococcus faecium; read-out: MIC
measurement label: log10(MIC) (log10 of the value in µg/mL)
For clarity, the numbers are log10 values of MIC expressed in µg/mL.

The examples below pair each entry with its known result.
>>> df
                                   compound  observed_result
0  COc1ccc2ncc(C#N)c(CC(O)C34CCC(NCc5ccc6c(n5)NC(=O)CO6)(CC3)CO4)c2n1 (stereo in doubt; 88)             0.00
1  Cc1cc(S(C)(=O)=O)nc2c(CCC34CCC(NCc5ccc6c(n5)NC(=O)CO6)(CC3)CO4)ccnc12             1.20
2  COc1cc2nccc(CCC34CCC(NCc5ccc6c(n5)NC(=O)CO6)(CC3)CO4)c2nc1C(=O)O             1.20
3  COc1ccc2nccc(CCC34CCC(NCc5ccc6c(n5)NC(=O)CO6)(CC3)CO4)c2n1             0.00
4  COc1nc2c(CCC34CCC(NCc5ccc6c(n5)NC(=O)CO6)(CC3)CO4)c(F)cnc2cc1F             0.30

## Task Form field: reported log10(MIC) of CN(C)c1ccc2ncc(F)c(CCC34CCC(NCc5ccc6c(n5)NC(=O)CO6)(CC3)CO4)c2n1
## Result 0.60

## Task Form field: reported log10(MIC) of COc1cc(C)c2nccc(CCC34CCC(NCc5ccc6c(n5)NC(=O)CO6)(CC3)CO4)c2n1
## Result 0.90

## Task Form field: reported log10(MIC) of O=C1COc2ccc(CNC34CCC(CCc5c(F)cnc6cc(Cl)cnc56)(CC3)OC4)nc2N1
## Result 1.51

## Task Form field: reported log10(MIC) of COc1ccc2ncc(Cl)c(CCC34CCC(NCc5ccc6c(n5)NC(=O)CO6)(CC3)CO4)c2n1
## Result 0.00

## Task Form field: reported log10(MIC) of COc1cc(CCC23CCC(NCc4ccc5c(n4)NC(=O)CO5)(CC2)CO3)c2nc(OC)ccc2n1
## Result 0.90

## Task Form field: reported log10(MIC) of COc1cc2nccc(CCC34CCC(NCc5ccc6c(n5)NC(=O)CO6)(CC3)CO4)c2nc1C#N
## Result 1.51

## Task Form field: reported log10(MIC) of COc1nc2c(CCC34CCC(NCc5ccc6c(n5)NC(=O)CO6)(CC3)CO4)ccnc2cc1Cl
## Result 1.20

## Task Form field: reported log10(MIC) of Cc1cc(S(C)(=O)=O)nc2c(CCC34CCC(NCc5ccc6c(n5)NC(=O)CO6)(CC3)CO4)c(F)cnc12
## Result 0.60

====

- method summary: Volume of distribution at steady state in C57BL/6 mouse at 1 mg/kg, iv or 10 mg/kg, po
- Format: ADME, organism-based
- condition description: in vivo, read-out: Vdss
measurement label: Vd
Please make sure the unit comes right after the number.

## Task Form field: reported Vd of COc1ccc2nccc(CCC34CCC(NCc5ccc6c(n5)NC(=O)CO6)(CC3)CO4)c2n1
## Result 5.95 L/kg

====

- Tested on: Staphylococcus aureus
- method summary: Antimicrobial activity against methicillin-resistant Staphylococcus aureus OIT971 by micro broth dilution or agar based method
- Type: functional
measurement label: MIC (µg/mL)
Could you give me the number in µg/mL? Just the number is fine.

>>> print(df.to_string())
                           structure_string  measurement_label  observed_result
0  COc1nc2c(CCC34CCC(NCc5ccc6c(n5)NC(=O)CO6)(CC3)CO4)c(F)cnc2cc1C(F)(F)F                MIC                8
1  CN(C)c1nc2c(CCC34CCC(NCc5ccc6c(n5)NC(=O)CO6)(CC3)CO4)ccnc2cc1C(F)(F)F                MIC                8
2  CCOC(=O)c1c(OC)cnc2c(CCC34CCC(NCc5ccc6c(n5)NC(=O)CO6)(CC3)CO4)ccnc12                MIC               16

Continue with the molecule presented below.
## Task Form field: reported MIC of Cc1nc2c(CCC34CCC(NCc5ccc6c(n5)NC(=O)CO6)(CC3)CO4)ccnc2cc1C#N
## Result 16

====

- System: Staphylococcus aureus
- method summary: Antimicrobial activity against methicillin-resistant Staphylococcus aureus OIT971 by micro broth dilution or agar based method
- Format: functional
measurement label: log10 MIC (log10 of the value in µg/mL)
For clarity, the numbers are log10 values of MIC expressed in µg/mL.

## Task Record COc1cc(C)c2ncc(F)c(CCC34CCC(NCc5ccc6c(n5)NC(=O)CO6)(CC3)CO4)c2n1 : what is its log10 MIC with Staphylococcus aureus?
## Result -2.10

## Task Record COc1nc2c(CCC34CCC(NCc5ccc6c(n5)NC(=O)CO6)(CC3)CO4)c(F)cnc2cc1F : what is its log10 MIC with Staphylococcus aureus?
## Result -1.80

## Task Record O=C1COc2ccc(CNC34CCC(CCc5ccnc6cc(Cl)cnc56)(CC3)OC4)nc2N1 : what is its log10 MIC with Staphylococcus aureus?
## Result 1.20

## Task Record O=C1COc2ccc(CNC34CCC(CCc5c(F)cnc6ccc(N7CCS(=O)(=O)CC7)nc56)(CC3)OC4)nc2N1 : what is its log10 MIC with Staphylococcus aureus?
## Result 0.00

## Task Record COc1ccc2ncc(Cl)c(CCC34CCC(NCc5ccc6c(n5)NC(=O)CO6)(CC3)CO4)c2n1 : what is its log10 MIC with Staphylococcus aureus?
## Result -2.10

## Task Record COc1ccc2ncc(F)c(CCC34CCC(NCc5ccc6c(n5)NC(=O)CO6)(CC3)CO4)c2n1 : what is its log10 MIC with Staphylococcus aureus?
## Result -2.10

## Task Record O=C1COc2ccc(CNC34CCC(CCc5ccnc6ccc(C(F)(F)F)nc56)(CC3)OC4)nc2N1 : what is its log10 MIC with Staphylococcus aureus?
## Result 0.00

## Task Record COc1ccc2ncc(F)c(C[C@H](O)C34CCC(NCc5ccc6c(n5)NC(=O)CO6)(CC3)CO4)c2n1 : what is its log10 MIC with Staphylococcus aureus?
## Result -1.22

## Task Record COc1ccc2nc(N3CCNCC3)c(F)c(CCC34CCC(NCc5ccc6c(n5)NC(=O)CO6)(CC3)CO4)c2n1 : what is its log10 MIC with Staphylococcus aureus?
## Result 0.90

## Task Record COc1cc2nccc(CCC34CCC(NCc5ccc6c(n5)NC(=O)CO6)(CC3)CO4)c2nc1C#N : what is its log10 MIC with Staphylococcus aureus?
## Result 0.30

## Task Record O=C1COc2ccc(CNC34CCC(CCc5c(F)cnc6cccnc56)(CC3)OC4)nc2N1 : what is its log10 MIC with Staphylococcus aureus?
## Result -0.60

====

- Tested on: Enterococcus faecium
- method summary: Antimicrobial activity against VanA expressing vancomycin-resistant Enterococcus faecium by micro broth dilution or agar based method
- Format: functional
- condition description: Enterococcus faecium; read-out: MIC
measurement label: MIC (µg/mL)
Could you give me the number in µg/mL? Just the number is fine.

>>> print(df.to_string())
                           structure_string  observed_result
0  COc1cc2nccc(CCC34CCC(NCc5ccc6c(n5)NC(=O)CO6)(CC3)CO4)c2nc1OC                8

## Task Form field: reported MIC of Cc1cc(C#N)nc2c(CCC34CCC(NCc5ccc6c(n5)NC(=O)CO6)(CC3)CO4)ccnc12
## Result 8

## Task Form field: reported MIC of O=C1COc2ccc(CNC34CCC(CCc5c(F)cnc6cccnc56)(CC3)OC4)nc2N1
## Result 4

## Task Form field: reported MIC of COc1ccc2ncc(F)c(C[C@H](O)C34CCC(NCc5ccc6c(n5)NC(=O)CO6)(CC3)CO4)c2n1
## Result 0.5

## Task Form field: reported MIC of COc1ccc2ncc(S(C)(=O)=O)c(CCC34CCC(NCc5ccc6c(n5)NC(=O)CO6)(CC3)CO4)c2n1
## Result 4

## Task Form field: reported MIC of O=C1COc2ccc(CNC34CCC(CCc5ccnc6ccc(C(F)(F)F)nc56)(CC3)OC4)nc2N1
## Result 16

## Task Form field: reported MIC of O=C1COc2ccc(CNC34CCC(CCc5c(F)cnc6ccc(N7CCS(=O)(=O)CC7)nc56)(CC3)OC4)nc2N1
## Result 16

## Task Form field: reported MIC of COc1cc(C)c2ncc(F)c(CCC34CCC(NCc5ccc6c(n5)NC(=O)CO6)(CC3)CO4)c2n1
## Result 2

## Task Form field: reported MIC of O=C1COc2ccc(CNC34CCC(CCc5ccnc6cc(F)cnc56)(CC3)OC4)nc2N1
## Result 32
